B1: C19orf51 (parent)
chain: FAPQTGARPSETFARFCKSQESAL

variants of: B1; assay: protein stability index of a GFP-peptide fusion (GPS, HEK-293T) (PSI 1-6); higher = more stable; conditions: c terminus: a fixed tail appended;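 note: lentivirally expressed fusions sorted by FACS into six bins by GFP to DsRed ratio, PSI derived from sequencing read proportions per bin multiplied by bin number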
Exercise: for every item that follows, state its recorded protein stability index.
Just the number, please.

Report protein stability index for F1S please.
3.79

Report protein stability index for E11N please.
3.64

Report protein stability index for A23C please.
1.55
